Reference source for all entries: PubChem BioAssay (EPA / NIEHS)

biological target: human Thyroid Receptor alpha (THRa1), THRA (gene 7067) (UniProt P10827); experiment: ATG_THRa1_TRANS: Attagene TRANS-FACTORIAL HepG2 Assay for human Thyroid Receptor alpha (THRa1) (AID 2283014)
Sequence (P10827 whole entry, looked up): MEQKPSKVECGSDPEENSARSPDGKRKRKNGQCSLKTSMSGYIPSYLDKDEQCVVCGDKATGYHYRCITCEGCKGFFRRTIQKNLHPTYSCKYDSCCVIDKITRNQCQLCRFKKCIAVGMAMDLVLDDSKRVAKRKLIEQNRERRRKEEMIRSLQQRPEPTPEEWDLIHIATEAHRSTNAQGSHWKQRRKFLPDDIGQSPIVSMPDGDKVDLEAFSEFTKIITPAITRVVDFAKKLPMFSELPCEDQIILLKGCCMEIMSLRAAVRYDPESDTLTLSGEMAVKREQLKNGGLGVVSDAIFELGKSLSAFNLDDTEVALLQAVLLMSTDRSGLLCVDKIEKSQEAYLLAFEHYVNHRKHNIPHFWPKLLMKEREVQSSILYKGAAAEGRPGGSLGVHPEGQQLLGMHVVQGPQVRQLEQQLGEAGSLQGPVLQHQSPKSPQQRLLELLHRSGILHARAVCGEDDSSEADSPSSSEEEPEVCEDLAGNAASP
Results filed as inconclusive are left out. Active and inactive are the calls of the source. How the source made its calls: active means hit-call score of the fitted dose curve at least 0.9, where 1 is the maximum; inconclusive means response in the unintended direction; inactive means score below 0.9.
// allowed return values: yes (1) (active), no (0) (inactive)

# count of solved cases: 5
COc1ccc(C=O)cc1OC    no (0)
O=C(OC1CCCCC1)c1ccccc1C(=O)OC1CCCCC1    no (0)
CNC(=O)O/N=C/C(C)(C)S(C)=O (stereo not given)    no (0)
NNC(=S)NN    no (0)
CCOP(=S)(OCC)SCCS(=O)(=O)CC    no (0)

Assay result, entry `c1ccc(N=NNc2ccccc2)cc1` — outcome? yes (1)

Please let me know the test result on file for `O=Cc1cccc(Oc2ccccc2)c1` . no (0)

Which result was noted for this compound in the test: `C=CC(=O)N(C)C` no (0)

# lookup: test call for `C[C@@H](Oc1ccc(Cl)cc1Cl)C(=O)O` no (0)

Query: recorded result category for `ClCc1cccnc1` in this test no (0)

----------
experiment: ATG_ISRE_CIS: Attagene CIS-FACTORIAL HepG2 Assay for human Interferon Regulatory Factor 1 (IRF1) binding to an Interferon-Stimulated Response Element (ISRE) (AID 2282948); conditions: HepG2 ISRE cis-reporter (Attagene), mRNA transcription readout; actives raise or lower the signal
Activity calls are given as the source filed them. The calls were made as follows: active = hit-call score of the fitted dose curve at least 0.9, where 1 is the maximum; inactive = score below 0.9.
Respond only with the outcome that fits, drawn from true (1) (active), false (0) (inactive)

Could you please tell me the result logged for CC(C)(c1ccc(OCC2CO2)cc1)c1ccc(OCC2CO2)cc1 (centres undefined) in this assay? true (1)

Tell me the recorded outcome of this test for `COC(=O)c1sccc1S(=O)(=O)NC(=O)Nc1nc(C)nc(OC)n1` . false (0)

I'd appreciate the recorded outcome for `C=CCc1ccc(OC)cc1` from this test. false (0)

I'd appreciate the recorded outcome for `Nc1cccc(Cl)c1` from this test. false (0)

Record request — test call for `CN(C)N=O` false (0)

Which outcome was entered for the compound `O=[N+]([O-])c1ccc(O)c([N+](=O)[O-])c1` in this test? false (0)

Which outcome was assigned to `C=C(C)C(=O)[O][Sn]([CH2]CCC)([CH2]CCC)[CH2]CCC` in this test? true (1)

Each compound tested received a call. Report the one for `Oc1ccc(-c2ccccc2)cc1` . true (1)

For `CCc1ccccc1C` , which call appears in the assay record? false (0)

Record request — test call for `Nc1ccc(N=Nc2ccc(-c3ccc(N=Nc4c(S(=O)(=O)O)cc5cc(S(=O)(=O)O)c(N=Nc6ccccc6)c(O)c5c4N)cc3)cc2)c(N)c1` false (0)

Please share the test call associated with `O=C1C(Cl)=C(Cl)C(=O)c2ccccc21` . false (0)

Test call, this compound: `CN(C)P(=O)(N(C)C)N(C)C` false (0)

Tell me the assay call for `O=[N+]([O-])c1ccc2c3c(cccc13)CC2` please. false (0)

GET /call?item= Clc1ccc(COC(Cn2ccnc2)c2ccc(Cl)cc2Cl)cc1 (centres undefined) returns the recorded outcome of this test. false (0)

Could you please tell me the result logged for `COP(=S)(OC)Oc1c(Cl)cc(C)cc1Cl` in this assay? false (0)

Per the assay record, what outcome was assigned to ClC1(Cl)C2(Cl)C3(Cl)C4(Cl)C(Cl)(Cl)C5(Cl)C3(Cl)C1(Cl)C5(Cl)C24Cl (centres undefined) ? false (0)

What did the test return for `CCCCCCCCSC(=O)Oc1cc(Cl)nnc1-c1ccccc1` ? true (1)

Hey, what did the test say about `Cn1sc(Cl)cc1=O` ? false (0)

Recorded test call requested for `O=C/C=C/c1ccccc1` false (0)

----------
read-out: Interleukin-1 alpha (IL1a), IL1A (gene 3552); test: BSK_BE3C_IL1a: BioMAP Diversity Plus: BE3C Assay for Interleukin-1 alpha (IL1a) Biomarker Activity (AID 2283016); settings: primary human bronchial epithelial cells; actives raise or lower the signal
Activity calls are given as the source filed them. Rule for the calls: active = hit-call score of the fitted dose curve at least 0.9, where 1 is the maximum; inactive = score below 0.9.
Write down one outcome, taken from active, inactive

State the result this test recorded for `Nc1ncc([N+](=O)[O-])s1` . inactive

Tell me the assay call for `C(=NC1CCCCC1)=NC1CCCCC1` please. active

Test call, this molecule: `CCNc1nc(NC(C)(C)C)nc(SC)n1` inactive

----------
molecular target: Estrogen receptor (Homo sapiens); test: ATG_ERa_TRANS: Attagene TRANS-FACTORIAL HepG2 Assay for human Estrogen Receptor alpha (ERa) (AID 2282970); conditions: HepG2 Attagene TRANS ERa GAL4 reporter, mRNA
Results filed as inconclusive are left out. The source made the active and inactive calls. Rule for the calls: active = hit-call score of the fitted dose curve at least 0.9, where 1 is the maximum; inconclusive = response in the unintended direction; inactive = score below 0.9.
Please reply with one of these outcomes: True (active), False (inactive)

Check out these entries, answers already filled in.
CCNc1nc(NC(C)(C)C)nc(SC)n1    False
CC1(C)CCC(Cc2ccc(Cl)cc2)C1(O)Cn1cncn1 (centres undefined)    True
COP(=O)(OC)O/C(=C\Cl)c1cc(Cl)c(Cl)cc1Cl    True
O=C(NCO)NCO    False
ClC(Cl)=C(Cl)C(Cl)=C(Cl)Cl    False
CC(C)C1CCC(Cc2ccc(Cl)cc2)C1(O)Cn1cncn1 (centres undefined)    False
CC(=O)OC(c1ccccc1)C(Cl)(Cl)Cl (centres undefined)    True
COc1cc(OC)nc(NC(=O)NS(=O)(=O)c2ncccc2C(=O)N(C)C)n1    True
Nc1cccc2ccccc12    False
C=C(C)C#N    False

# lookup: test call for `CCC(C)(C)c1ccc(O)c(C(C)(C)CC)c1` True

Fill in: this test's call for `COc1ccc(C=O)cc1OC` is ___ True

Dear all, I need the recorded test outcome for `O=C(O)Cc1ccccc1` , thank you. False

Dear all, I need the recorded test outcome for `ClCc1ccccn1` , thank you. False

----------
assay: CCTE_Shafer_MEA_dev_per_network_spike_spike_percent: CCTE's Neural Network Formation Assay for Percent of Spikes in a Network Spike, Shafer Lab (AID 2284054)
Calls of active or inactive are those of the source. The calls were made as follows: active = hit-call score of the fitted dose curve at least 0.9, where 1 is the maximum; inactive = score below 0.9.
Could you please pick one outcome from this set? label 1 = active, label 0 = inactive

CC(C)(C)c1cc(O)ccc1O    label 1
O=C(O)C(F)(F)C(F)(F)C(F)(F)C(F)(F)C(F)(F)C(F)(F)C(F)(F)C(F)(F)C(F)(F)C(F)(F)F    label 0
Cn1sc(Cl)cc1=O    label 1

Per the assay record, what outcome was assigned to `COP(=O)(OC)O/C(=C\Cl)c1cc(Cl)c(Cl)cc1Cl` ? label 0

Field: outcome | Entry: `CC(=O)[O][Hg][c]1ccccc1` label 1

----------
read-out: Cytochrome P450 2C19 (Homo sapiens) (UniProt P33261); assay: LTEA_HepaRG_CYP2C19: Life Technologies and Expression Analysis (LTEA) Assay for CYP2C19 using HepaRG (AID 2283482); conditions: mRNA level, 48 h; actives raise or lower the signal
Sequence (P33261 whole entry, looked up): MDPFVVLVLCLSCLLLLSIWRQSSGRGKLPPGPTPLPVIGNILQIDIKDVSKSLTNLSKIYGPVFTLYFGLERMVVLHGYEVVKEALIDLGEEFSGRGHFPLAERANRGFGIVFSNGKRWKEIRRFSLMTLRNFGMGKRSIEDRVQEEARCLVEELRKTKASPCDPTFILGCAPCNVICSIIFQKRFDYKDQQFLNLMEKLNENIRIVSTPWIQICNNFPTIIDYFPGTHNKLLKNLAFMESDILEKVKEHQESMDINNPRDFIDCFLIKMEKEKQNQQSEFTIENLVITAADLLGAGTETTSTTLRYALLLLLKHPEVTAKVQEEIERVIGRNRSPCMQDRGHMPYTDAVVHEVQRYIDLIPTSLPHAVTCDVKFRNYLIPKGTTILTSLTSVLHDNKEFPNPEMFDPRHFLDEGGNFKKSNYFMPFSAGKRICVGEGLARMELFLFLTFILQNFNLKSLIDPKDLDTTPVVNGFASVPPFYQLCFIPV
The source made the active and inactive calls. How the source made its calls: active means hit-call score of the fitted dose curve at least 0.9, where 1 is the maximum; inactive means score below 0.9.
Respond with a class label; see 1 (active), 0 (inactive)

Past entries and their recorded results:
Cn1sc(Cl)cc1=O    0
Cc1ccccc1N    0
C[C@]12CCC(=O)C[C@@H]1CC[C@@H]1[C@@H]2CC[C@]2(C)[C@@H](O)CC[C@@H]12    1
NC(=O)O    0
O=[N+]([O-])c1ccc(O)c([N+](=O)[O-])c1    1

Outcome logged for `CC(C)(C)c1cc(O)ccc1O` in this assay: 0

Which outcome was assigned to `O=C(O)C(Cl)(Cl)Cl` in this test? 0

Which outcome was assigned to `ClCC(Cl)CCl` in this test? 0

Record request — test call for `CCOP(=S)(OCC)SCSP(=S)(OCC)OCC` 1

Could you please tell me the result logged for `Oc1cccc2cccnc12` in this assay? 0

Recorded call for `CCCCCCCCc1ccc(O)cc1` ? 0

Answer briefly: the call reported for O=C1C2(Cl)C3(Cl)C4(Cl)C(Cl)(Cl)C5(Cl)C3(Cl)C1(Cl)C5(Cl)C24Cl (centres undefined) in this assay. 1

Dear all, I need the recorded test outcome for `O=C(O)C(F)(F)C(F)(F)C(F)(F)C(F)(F)C(F)(F)C(F)(F)C(F)(F)C(F)(F)C(F)(F)C(F)(F)F` , thank you. 0

Which outcome was assigned to CC12CC1(C)C(=O)N(c1cc(Cl)cc(Cl)c1)C2=O (centres undefined) in this test? 1

Outcome? `CC(C)(c1ccccc1)c1ccc(O)c(C(C)(C)c2ccccc2)c1` 1

Please indicate how the test categorized `COc1cc(-c2ccc(N)c(OC)c2)ccc1N` . 0

----------
assay: ATG_AP_2_CIS: Attagene CIS-FACTORIAL HepG2 Assay for human Activator Protein 2 (AP-2) (AID 2282932); conditions: HepG2 AP-2 cis-reporter, Attagene transcription factor profiling; actives raise or lower the signal
Active and inactive are the calls of the source. The calls were made as follows: active = hit-call score of the fitted dose curve at least 0.9, where 1 is the maximum; inactive = score below 0.9.
Valid outcomes are listed here; reply with one: yes (active), no (inactive)

CC(=O)C(Cl)C(=O)N(C)C (stereo not drawn)    no

Tell me the assay call for `COC(=O)c1sccc1S(=O)(=O)NC(=O)Nc1nc(C)nc(OC)n1` please. no

Returns: the outcome recorded for `O=c1[nH]c(=O)[nH]c(=O)[nH]1` in this assay. no

# lookup: test call for `Cn1sc(Cl)cc1=O` no
